Recorded values, source ChEMBL document CHEMBL1944599.

molecular target: Beta-2 adrenergic receptor (Homo sapiens, UniProt P07550); test: Displacement of radiolabeled iodocyanopindolol from recombinant beta2 adrenoceptor
Sequence (P07550 whole entry): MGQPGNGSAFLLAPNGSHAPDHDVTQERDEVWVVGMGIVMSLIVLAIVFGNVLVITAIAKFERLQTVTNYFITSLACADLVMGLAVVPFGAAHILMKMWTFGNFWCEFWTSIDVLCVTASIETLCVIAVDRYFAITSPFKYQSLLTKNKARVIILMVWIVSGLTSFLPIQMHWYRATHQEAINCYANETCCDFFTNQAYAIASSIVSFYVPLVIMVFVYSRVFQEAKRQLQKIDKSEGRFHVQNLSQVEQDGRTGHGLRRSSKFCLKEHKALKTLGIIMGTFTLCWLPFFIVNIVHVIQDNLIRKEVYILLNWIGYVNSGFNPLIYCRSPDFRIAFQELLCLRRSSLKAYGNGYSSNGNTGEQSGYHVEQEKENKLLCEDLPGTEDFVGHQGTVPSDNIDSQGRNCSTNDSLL
measured quantity: IC50
Answer with the number, then the unit.

Please review the entries below; each comes with its answer.
| compound | result |
| --- | --- |
| COc1ccccc1CCNCc1ccc(CCNC[C@H](O)c2ccc(O)c3[nH]c(=O)sc23)cc1 | 2 nM |
| O=c1[nH]c2c(O)ccc(CCNCCc3ccc(CN4CC[C@@H](Oc5ccc(Cl)cc5)C4)cc3)c2s1 | 126 nM |
| O=c1[nH]c2c(O)ccc([C@@H](O)CNCCc3ccc(CNCCc4c(Cl)cccc4Cl)cc3)c2s1 | 3.98 nM |
| O=c1[nH]c2c(O)ccc([C@@H](O)CNCCc3cccc(CNCCc4ccccc4F)c3)c2s1 | 0.501 nM |
| COCCNCc1cccc(CCNC[C@H](O)c2ccc(O)c3[nH]c(=O)sc23)c1 | 25.1 nM |
| CCOc1ccccc1CNCc1cccc(CCNC[C@H](O)c2ccc(O)c3[nH]c(=O)sc23)c1 | 25.1 nM |
| COc1ccccc1CCNCc1cccc(CCNC[C@H](O)c2ccc(O)c3[nH]c(=O)sc23)c1 | 0.794 nM |
| O=c1[nH]c2c(O)ccc([C@@H](O)CNCCc3ccccc3CNCCc3ccccc3F)c2s1 | 12.6 nM |

Next item in the queue.
Quick one: IC50 of O=c1[nH]c2c(O)ccc([C@@H](O)CNCCc3cccc(CNCCc4ccccc4Cl)c3)c2s1 ?
0.631 nM
